- Test system: Saccharomyces cerevisiae
- Experiment Summary: protein stability index of tFT-peptide fusion in wild type (PSI (0-1 scale)); higher = more stable (slower turnover)
- Cond: genetic background: wild type
Parameter threshold = 0.2. Response is y when protein stability index meets or exceeds it, else n.

1) RVMRLDAIYFRI :: y
2) GLHMCSVGCWFR :: y
3) AITCPMCPLLLR :: y
4) PSLAASAWRVVG :: n
5) KKHKKGQKQKCN :: y

Quick check: does PSLAASNWRVVG have protein stability index greater than or equal to 0.2? y

Quick check: does GLYMCVVGCWFR have protein stability index greater than or equal to 0.2? y

Quick check: does FNMRWTFRYWVN have protein stability index greater than or equal to 0.2? n

Quick check: does KKHKKGQKWKIN have protein stability index greater than or equal to 0.2? n

Quick check: does RVTRLDAIYFRIY have protein stability index greater than or equal to 0.2? n

Quick check: does CLVSLPIALFFR have protein stability index greater than or equal to 0.2? n

---

- Test system: Saccharomyces cerevisiae
- Experiment Summary: protein stability index of tFT-peptide fusion (C-terminal peptide) (PSI (0-1 scale)); higher = more stable (slower turnover)
- Cond: genetic background: wild type; temperature: 30 C
Parameter threshold = 0.6. Response is yes (1) when protein stability index meets or exceeds it, else no (0).

1) RCEWRGSCWGGE :: yes (1)
2) IRNACRINESQC :: yes (1)
3) PPPPPPPRALNL :: yes (1)
4) SVFCSLFLFLFY :: no (0)
5) PSRPSPSPHLPL :: yes (1)
6) SHPLTLPSLLPP :: yes (1)

Proceed to the following item.
Quick check: does FALFLFFGPLIV have protein stability index greater than or equal to 0.6? no (0)

---

Recorded protein stability index for the following sequences
- Test system: Saccharomyces cerevisiae
- Experiment Summary: protein stability index of tFT-peptide fusion in deletion strain of DOA10 (PSI (0-1 scale)); higher = more stable (slower turnover)
Give a plain numeric answer without units written out.

# example entries with known answers
1) RVTTLDAIYFRI :: 0.661
2) PLYMCSVGCWFR :: 0.643
3) RSLRVLLPLYFF :: 0.502
4) RSLRVLLPLSFR :: 0.673
5) AITLPMCPPLLR :: 0.663
6) AITWPMCPLLLR :: 0.7
7) CLVSLPILNFFR :: 0.66
8) DLVSLPILLFFR :: 0.637
9) RSLMVLLPLYFR :: 0.637
10) GVTRLDAIYFRI :: 0.69

Consider the sequence shown here: AITCPMCPLLLR What is its recorded protein stability index? 0.643

Consider the sequence shown here: CLYSLPILLFFR What is its recorded protein stability index? 0.586

Consider the sequence shown here: GLHMCSVGCWFR What is its recorded protein stability index? 0.682

Consider the sequence shown here: RVTRLDAIGFRI What is its recorded protein stability index? 0.696

Consider the sequence shown here: RVTRLDAIYWRI What is its recorded protein stability index? 0.684

Consider the sequence shown here: RSLRVLLPLHFR What is its recorded protein stability index? 0.714

Consider the sequence shown here: AITLPMGPLLLR What is its recorded protein stability index? 0.688

Consider the sequence shown here: AITLPMKPLLLR What is its recorded protein stability index? 0.659

src = the supplement of paper PMC10724198
